- protocol.description: Tmax in mouse at 10 mg/kg, po
- Format: ADME, organism-based
- Set-up: dose 10 mg/kg, route oral
- condition.set: in vivo
experimental.endpoint: Tmax (min)

COc1ccc(-c2cccc(C(=O)N[C@H]3CC[C@H](n4cc(F)c(N)nc4=O)C3)c2)cc1
18

I: Nc1nc(=O)n([C@H]2CC[C@H](NC(=O)c3cccc(-c4ccc(Cl)cc4)c3)C2)cc1F
II: Nc1nc(=O)n([C@H]2CC[C@H](NS(=O)(=O)c3cccc(-c4ccc(Cl)cc4)c3)C2)cc1F
Asked: Of the two listed items, I and II , which carries the larger Tmax figure? Lab note: record the label of whichever item you select.
Given back: II

Cited source: ChEMBL document CHEMBL1154362
